Biological target: cynomolgus HER2 antigen (cynomolgus monkey)
Assay: SPR (ProteOn XPR36), IgG captured by anti-human Fc, soluble monovalent antigen, 1:1 fit
ASSAY READOUT: Kd

Input line: Which value of Kd has been reported for chimeric anti-HER2 antibody 4517 (antibody, V domains shown, light chain entry is full length) VH: EVQLVESGGDLVKPGGSLKLSCAASGFTFSSYGMSWVRLTPDKRLEWVATISGGGSYTYYPDSVKGRFTISRDIAKSTLYLQMSSLKSEDTAVYYCARKGNYGNYGKLAYWGQGTSVTVS VL: DIQMTQSPASLSVSVGETVTITCRASENIYSNLAWYQQEQGKSPQLLVYAATNLADGVPSRFSGSGSGTQYSLKINSLQSEDFGSYYCQHFWGTPWTFGGGTKLEIKR in the records?
Output line: 3.7 nM

Input line: Which value of Kd has been reported for humanized anti-HER2 antibody 11249 (antibody, V domains shown) VH: QVQLVQSGAEVKKPGASVKVSCKASGYTFTSHWMHWVRQAPGQGLEWMGNINPSSGGTNYNEKFKSRVTMTVDTSTSTVYMELSSLRSEDTAVYYCARAYYDFSWFVYWGQGTLVTVSS VL: DIQMTQSPSSLSASVGDRVTITCRSSQDISNYLNWYQQKPGKAPKLLMYISRLHSGVPSRFSGSGSGTDYTFTISSLQPEDIATYYCQQGNTLPLTFGGGTKVEIK in the records?
Output line: 2.5 nM

Input line: Which value of Kd has been reported for chimeric anti-HER2 antibody 4384 (antibody, V domains shown, light chain entry is full length) VH: QVQLQQPGTELVKPGASVKLSCKASGYTFTSHWMHWVKQRPGQGLEWIGNINPSNGGTNYNEKFKSRATLTVDKASSTAYMQLSSLTSEDSAVYYCARAYYDFSWFVYWGQGTLVTVS VL: DIQMTQTSSSLSASLGDRVTISCRSSQDISNYLNWYQQKPDGTVKLLMYISRLHSGVPSRFSGSGSGTEYSLTISNLEQEDIATYFCQQGNTLPLTFGAGTKLELKR in the records?
Output line: 2.9 nM

Input line: Which value of Kd has been reported for humanized anti-HER2 antibody 11145 (antibody, V domains shown) VH: EVQLVESGGGLVKPGGSLRLSCAASGFTFSSYGMSWVRQAPGKGLEWVATISGGGSYTYYPDSVKGRFTISRDIAKSSLYLQMNSLRAEDTAVYYCARKGNYGNYGKLAYWGQGTTVTVSS VL: DIQMTQSPSSLSASVGDRVTITCRASENIYSNLAWYQQKPGKAPKLLIYAATNLATGVPSRFSGSGSGTDYTLTISSLQPEDFASYYCQHFWGTPWTFGQGTKLEIK in the records?
Output line: 12 nM
